# target.of.assay: human kinase Mps-1 (Homo sapiens)
# Construct: N-terminally GST-tagged human full length recombinant Mps-1 kinase; GST (N)
# test.summary: Mps-1 kinase assay (TR-FRET)
# experimental.context: N-terminally GST-tagged human full length recombinant Mps-1; 10 μM ATP; 1 μM peptide substrate; 60 min at 22° C.
measured.endpoint: IC50 (nM)

COc1ccc(Oc2cc(NCC(F)F)c3ncc(-c4ccc(C(=O)NC5CC5)c(C)c4)n3c2)cc1 [Example 162]    8.6
CNC(=O)c1ccc(-c2cnc3c(NCCC(F)(F)F)cc(-c4ccncc4)cn23)cc1C [Example 88]    9.8
CNC(=O)c1ccc(-c2cnc3c(NCCC(F)(F)F)cc(-c4ccc(C(=O)N[C@H]5C[C@@H]5F)c(C)c4)cn23)cc1C (relative stereo) [Example 154]    12.7
Cc1ccc(F)cc1Oc1cc(NCCC(F)(F)F)c2ncc(-c3ccc(C(=O)NC4(C#N)CC4)c(C)c3)n2c1 [Example 28]    13.9
Cc1cc(-c2cnc3c(NCCC(F)(F)F)cc(Oc4ccc(OC(F)(F)F)cc4)cn23)ccc1C(=O)NC1CC1 [Example 64]    8.6
CCNC(=O)c1ccc(-c2cc(NCCC(F)(F)F)c3ncc(-c4ccc(C(=O)NC)c(C)c4)n3c2)cc1C [Example 159]    9.1
Cc1cc(-c2cnc3c(NCCC(F)(F)F)cc(Oc4cccc(Cl)c4)cn23)ccc1C(=O)NC1(C)CC1 [Example 36]    11.1

###

# target.of.assay: human kinase Mps-1 (Homo sapiens)
# Construct: N-terminally GST-tagged human full length recombinant Mps-1 kinase; GST (N)
# Sequence (P33981 1-857): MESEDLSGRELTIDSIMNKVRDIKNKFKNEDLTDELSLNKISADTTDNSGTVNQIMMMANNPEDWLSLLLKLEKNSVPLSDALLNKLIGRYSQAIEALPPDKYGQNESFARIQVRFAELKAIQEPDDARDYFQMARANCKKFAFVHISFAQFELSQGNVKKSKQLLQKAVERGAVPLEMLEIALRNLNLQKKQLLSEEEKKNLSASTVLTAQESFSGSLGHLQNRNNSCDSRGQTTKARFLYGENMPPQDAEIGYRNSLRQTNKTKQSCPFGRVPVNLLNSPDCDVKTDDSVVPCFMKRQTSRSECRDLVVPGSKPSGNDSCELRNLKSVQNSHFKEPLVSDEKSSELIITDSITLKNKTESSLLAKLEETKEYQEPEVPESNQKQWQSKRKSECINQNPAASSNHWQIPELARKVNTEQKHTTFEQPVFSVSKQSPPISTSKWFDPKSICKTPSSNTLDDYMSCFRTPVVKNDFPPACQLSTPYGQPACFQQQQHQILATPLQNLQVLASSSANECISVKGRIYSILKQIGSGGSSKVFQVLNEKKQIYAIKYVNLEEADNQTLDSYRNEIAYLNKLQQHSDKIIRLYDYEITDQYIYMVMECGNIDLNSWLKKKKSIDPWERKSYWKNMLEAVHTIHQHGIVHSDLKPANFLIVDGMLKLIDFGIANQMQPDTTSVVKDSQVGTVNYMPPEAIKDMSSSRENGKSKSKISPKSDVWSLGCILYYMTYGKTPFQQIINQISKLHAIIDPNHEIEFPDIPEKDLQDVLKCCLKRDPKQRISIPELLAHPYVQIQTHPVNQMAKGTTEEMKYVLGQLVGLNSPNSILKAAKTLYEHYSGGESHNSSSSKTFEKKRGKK
# test.summary: Mps-1 kinase assay (TR-FRET)
# experimental.context: N-terminally GST-tagged human full length recombinant Mps-1; 10 μM ATP; 1 μM peptide substrate; 60 min at 22° C.
pIC50: −log10 of the molar value.
measured.endpoint: pIC50

Below, 3 molecules whose answers are already recorded.
Cc1cc(-c2cnc3c(NCCC(F)(F)F)cc(Sc4ccccc4)cn23)ccc1C(=O)NC1CC1 [Example 3-3]    9.30
CNC(=O)c1ccc(-c2cnc3c(NCCC(F)(F)F)cc(Oc4cccc(OC)c4)cn23)cc1C [Example 55]    8.54
CCNC(=O)c1ccc(-c2cnc3c(NCCC(F)(F)F)cc(Oc4cccc(F)c4F)cn23)cc1C [Example 73]    8.92

[1] COCCNc1cc(Oc2ccc(F)c(F)c2)cn2c(-c3ccc(C(=O)NC4CC4)c(C)c3)cnc12 [Example 171]
[2] CCNC(=O)c1ccc(-c2cnc3c(NCCC(F)(F)F)cc(/C=C\CO)cn23)cc1C [Example 120]
Req: Given 1 and 2 , report the one with the higher recorded pIC50. Refer to your chosen item by its label in the answer.
Resp: 2

[A] CCNC(=O)c1ccc(-c2cnc3c(NCCC(F)(F)F)cc(Oc4ccc(OC(F)(F)F)cc4)cn23)cc1C [Example 68]
[B] CCNC(=O)c1ccc(-c2cnc3c(NCCC(F)(F)F)cc(-c4ccncc4)cn23)cc1C [Example 89]
Req: Which of the two gives a bigger number for pIC50: A or B ? The response must carry the label of the picked entry.
Resp: B

[1] Cc1cc(-c2cnc3c(NCCC(F)(F)F)cc(Oc4ccc(OC(F)(F)F)c(F)c4)cn23)ccc1C(=O)NC1(C#N)CC1 [Example 84]
[2] CCNC(=O)c1ccc(-c2cnc3c(NCCC(F)(F)F)cc(Oc4cccc(Cl)c4)cn23)cc1C [Example 35]
Req: Of the two listed items, 1 and 2 , which carries the larger pIC50 figure? Pick one; state its label.
Resp: 2
(2: 8.20, 1: 6.61)

[I] C=Cc1cc(NCCC(F)(F)F)c2ncc(-c3ccc(C(=O)NC4CC4)c(C)c3)n2c1 [Example 92]
[II] C/C=C/c1cc(NCCC(F)(F)F)c2ncc(-c3ccc(C(=O)NC4(C)CC4)c(C)c3)n2c1 [Example 114]
Req: // compare measured pIC50, left I , right II , return larger Answer = label.
Resp: I

###

# target.of.assay: human kinase Mps-1 (Homo sapiens, UniProt P33981)
# Construct: N-terminally GST-tagged human full length recombinant Mps-1 kinase; GST (N)
# test.summary: Mps-1 kinase assay (TR-FRET)
# experimental.context: N-terminally GST-tagged human full length recombinant Mps-1; 10 μM ATP; 1 μM peptide substrate; 60 min at 22° C.
measured.endpoint: IC50 (nM)

The examples below pair each entry with its known result.
Cc1cc(-c2cnc3c(NCC(F)F)cc(Oc4cccc(F)c4)cn23)ccc1C(=O)NC1CC1    2.3
C=Cc1cc(NCCC(F)(F)F)c2ncc(-c3ccc(C(=O)NC)c(C)c3)n2c1    68.6
Cc1cc(-c2cnc3c(NCCC(F)(F)F)cc(Oc4cccc(F)c4)cn23)ccc1C(=O)NC1CC1F (single isomer, unassigned) [Example 12 (ent.-A or A)]    0.7
Cc1cc(-c2cnc3c(NCCC(F)(F)F)cc(Oc4cccc(F)c4)cn23)ccc1C(=O)NC1CC1    0.3
Cc1cc(F)cc(Sc2cc(NCCC(F)(F)F)c3ncc(-c4ccc(C(=O)NC5CC5)c(C)c4)n3c2)c1    0.6
CNC(=O)c1ccc(-c2cnc3c(NCCC(F)(F)F)cc(Oc4cccc(OC(F)(F)F)c4)cn23)cc1C    30.3
CCNC(=O)c1ccc(-c2cnc3c(NCC4CCOCC4)cc(Oc4ccc(OC)c(F)c4)cn23)cc1C    1.9
Cc1cc(-c2cnc3c(NCCC(F)(F)F)cc(-c4ccncc4)cn23)ccc1C(=O)NC1(C#N)CC1    20.6

[P] CNC(=O)c1ccc(-c2cnc3c(NCCC(F)(F)F)cc(C#CCO)cn23)cc1C
[Q] Cc1cc(-c2cnc3c(NCCC(F)(F)F)cc(/C=C\CO)cn23)ccc1C(=O)N[C@@H]1C[C@H]1F (relative stereo)
[R] Cc1ccc(F)cc1Oc1cc(NCCC(F)(F)F)c2ncc(-c3ccc(C(=O)N[C@@H]4C[C@H]4C)c(C)c3)n2c1 (relative stereo)
[S] Cc1cc(-c2cnc3c(NCCC(F)(F)F)cc(Oc4cccc(F)c4F)cn23)ccc1C(=O)NC1CC1
Req: Returns the items ordered by IC50, from maximum to minimum. Provide the labels, sequenced as the question asks.
Resp: P, Q, R, S

[a] Cc1ccc(F)cc1Oc1cc(NCCC(F)(F)F)c2ncc(-c3ccc(C(=O)NC4(C)CC4)c(C)c3)n2c1
[b] COCCNc1cc(C(=O)c2cc(F)ccc2O)cn2c(-c3ccc(C(=O)NC4CC4)c(C)c3)cnc12
[c] COCCNc1cc(Oc2ccccc2C)cn2c(-c3ccc(C(=O)NC4CC4)c(C)c3)cnc12
Req: Order field: IC50 | Direction: descending (largest first) Answer by listing the labels in the requested order.
Resp: b, c, a
(b: 816 nM, c: 176 nM, a: 4.2 nM)

###

# target.of.assay: human kinase Mps-1 (Homo sapiens, UniProt P33981)
# Construct: N-terminally GST-tagged human full length recombinant Mps-1 kinase; GST (N)
# test.summary: Mps-1 kinase assay (TR-FRET)
# experimental.context: N-terminally GST-tagged human full length recombinant Mps-1; 10 μM ATP; 1 μM peptide substrate; 60 min at 22° C.
pIC50: −log10 of the molar value.
measured.endpoint: pIC50

Before answering, review these 3 worked examples.
COc1ncc(Oc2cc(NCCC(F)(F)F)c3ncc(-c4ccc(C(=O)NC5CC5)c(C)c4)n3c2)cc1F    8.66
Cc1cc(-c2cnc3c(NCCC(F)(F)F)cc(Oc4cccc(O)c4)cn23)ccc1C(=O)NC1(C)CC1    8.66
CNC(=O)c1ccc(-c2cnc3c(NCCC(F)(F)F)cc(-c4ccc(C(=O)OC)c(C)c4)cn23)cc1C    7.44

[A] COCCNc1cc(Oc2cccc(F)c2F)cn2c(-c3ccc(C(=O)NC4CC4)c(C)c3)cnc12
[B] Cc1cc(-c2cnc3c(NCCC(F)(F)F)cc(Oc4cccc(Cl)c4)cn23)ccc1C(=O)NC1CC1F (single isomer, unassigned) [Example 39 (A or ent.-A)]
Req: In terms of reported pIC50, does A or B have the smaller number? Pick one and reply with its label.
Resp: A

[a] COc1ccc(Oc2cc(NCC(F)F)c3ncc(-c4ccc(C(=O)NC5CC5)c(C)c4)n3c2)cc1F
[b] Cc1cc(-c2cnc3c(NCCC(F)(F)F)cc(Oc4cccc(Cl)c4)cn23)ccc1C(=O)N[C@@H]1C[C@H]1F (relative stereo) [Example 39 (rac.-A)]
[c] CNC(=O)c1ccc(-c2cnc3c(NCCC(F)(F)F)cc(Oc4ccc(OC(F)(F)F)c(F)c4)cn23)cc1C
Req: # rank_down: sort by pIC50, max first Provide the labels, sequenced as the question asks.
Resp: b, a, c
(b: 8.51, a: 8.21, c: 7.25)
